Assignment: determine reported GI50 for the given compounds.
# Tested on: SK-OV-3 ovarian
# assay.remarks: NCI tumour cell line growth inhibition, 48 h

Q) Find GI50 (SK-OV-3 ovarian) for the entry O=C1c2c(O)cccc2C(C(=O)CCCCCC(=O)C2c3cccc(O)c3C(=O)c3c(O)cccc32)c2cccc(O)c21
A) 6.3 µM

Q) Find GI50 (SK-OV-3 ovarian) for the entry Cc1cc(F)c(C(=O)Nc2cccc(-c3nncn3C(C)C)n2)cc1-n1cnc(C2CC2)c1
A) 24.5 µM

Q) Find GI50 (SK-OV-3 ovarian) for the entry O=c1cc(-c2ccc(Cl)cc2)[nH]c2ccccc12
A) 44.8 µM

Q) Find GI50 (SK-OV-3 ovarian) for the entry O=C(COc1ccc(/C=C2\Oc3ccc4ccccc4c3C2=O)cc1)c1ccc([N+](=O)[O-])cc1
A) 24.2 µM
